System: Neuregulin-1 EGF-like domain
Assay Method Text: binders of neuregulin-1 EGF-like domain, primary screen, biochemical, small-molecule microarray, 635 nm fluorescence (AID 1081);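 note: binding of the protein to compounds printed on small-molecule microarray slides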
Setup Conditions: small-molecule microarray binding, higher = more signal

{"columns": ["Compound", "Target Under Test", "composite z-score"],
 "data": [
  ["C=CCN1C(=O)[C@@]2(O[C@@H](CCO)[C@H]([Si](C)(C)c3ccc(OC)cc3)[C@H]2C)c2cc(N(C=O)c3ccccc3)ccc21", "Neuregulin-1 EGF-like domain", 0.904],
  ["CC(C)(C)OC(=O)CC[C@]1(C(=O)NCc2ccccc2)COC(c2ccc(OCCCO)cc2)=N1", "Neuregulin-1 EGF-like domain", 1.1],
  ["C=C(COC)C(=O)CC[C@H](OC(=O)c1ccccc1-c1ccccc1C(=O)O)c1ccccc1OCCO", "Neuregulin-1 EGF-like domain", 0.761],
  ["O=C1O[C@H](c2ccccc2)[C@H](c2ccccc2)N2[C@H]1[C@@H](C(=O)NC[C@H](O)c1ccccc1)[C@]1(C(=O)Nc3ccc(C#CC4(O)CCCCCC4)cc31)[C@H]2c1ccc(O)cc1", "Neuregulin-1 EGF-like domain", 1.34],
  ["C=CCNC(=O)[C@@H]1[C@H]2C(=O)O[C@H](c3ccccc3)[C@H](c3ccccc3)N2[C@H](c2ccc(O)cc2)[C@@]12C(=O)Nc1ccc(C#Cc3ccc(OC)cc3)cc12", "Neuregulin-1 EGF-like domain", 1.16],
  ["O=C1c2ccccc2C(=O)c2cc([C@H]3Oc4ccccc4S(=O)(=O)N4CCC[C@@H]34)ccc21", "Neuregulin-1 EGF-like domain", -1.64],
  ["CC(=O)NCCCC[C@@H]1NC(=O)[C@@H]2C[C@H](C(=O)O)[C@H](c3cccc(OCCO)c3)N2C1=O", "Neuregulin-1 EGF-like domain", 1.31],
  ["O=C1O[C@@H](c2ccccc2)[C@@H](c2ccccc2)N2[C@@H](c3ccc(OCCO)cc3)[C@]3(C(=O)Nc4ccc(C#CC5(O)CCCCCC5)cc43)[C@@H](C(=O)NC[C@H](O)c3ccccc3)[C@H]12", "Neuregulin-1 EGF-like domain", 1.26],
  ["C=CCC(OC(C)=O)[C@@H]1[C@@H](N(Cc2ccc(-c3ccccc3)cc2)C(=O)c2ccc(-c3ccccc3)cc2)c2cc(OCCCO)ccc2N1C(=O)c1ccc(-c2ccccc2)cc1 (stereo partly drawn)", "Neuregulin-1 EGF-like domain", -0.864],
  ["CN1C=C(C(=O)OCCS(C)(=O)=O)C(C(=O)OCCS(C)(=O)=O)=CC(CCCO)=CC1c1cccs1 (stereo not drawn)", "Neuregulin-1 EGF-like domain", 0.269],
  ["COc1ccc([Si](C)(C)[C@H]2[C@H](CC(=O)N3Cc4ccccc4C[C@H]3CO)O[C@@]3(C(=O)N(Cc4cccc(N5C(=O)COc6ccccc65)c4)c4ccccc43)[C@@H]2C)cc1", "Neuregulin-1 EGF-like domain", 1.08],
  ["COCCOC(=O)N1C(=O)[C@@]2(c3cc(C#CC4(O)CCCCCC4)ccc31)[C@H](c1ccccc1OCCO)N1[C@H](c3ccccc3)[C@H](c3ccccc3)OC(=O)[C@H]1[C@@H]2C(=O)Nc1nc2ccccc2s1", "Neuregulin-1 EGF-like domain", 1.26],
  ["CCN(CC)c1ccc(N2CC=CC34O[C@@H]5C=CCOC(=O)[C@@H]5[C@H]3C(=O)N(C(C)CO)[C@@H]4C2=O)cc1 (stereo partly drawn)", "Neuregulin-1 EGF-like domain", 0.344]
]}
